- Test system: GM3
- Assay Name: GM3 Elisa assay
- Format: cell-based
- Cond: Table 3 (IC 50 Values); B16-FO cells; read-out: IC50_uM_Mean
Below: a set of entries, each annotated with reported IC50.

Worked examples follow.
compound_structure_string=COc1ccc(C(=O)CCCCC(=O)N[C@H](CN2CCCC2)[C@H](O)c2ccc(OCC3CCCCC3)cc2)cc1 result="≤ 100 nM"
compound_structure_string=COCCc1ccc([C@@H](O)[C@@H](CN2CCCC2)NC(=O)Cc2ccc(OC(F)(F)F)cc2)cc1 result="100 to 1000 nM"
compound_structure_string=COc1ccc(C(=O)CCCCC(=O)N[C@H](CN2CCCC2)[C@H](O)c2ccc(OCCCOc3cccc(C)c3)cc2)cc1 result="≤ 100 nM"
compound_structure_string=COc1ccc(C(=O)CCCCC(=O)N(CC(=O)c2ccc(OC)cc2)[C@H](CN2CCCC2)[C@H](O)c2ccc(O)cc2)cc1 result="3000 to 10000 nM"
compound_structure_string=CCCCCCCC(=O)N[C@H](CN1CCCC1)[C@H](O)c1ccc(OC(F)(F)F)cc1 result="100 to 1000 nM"
compound_structure_string=COc1ccc(C(=O)CCCC(=O)N[C@H](CN2CCCC2)[C@H](O)c2ccc(OC)c(C)c2)cc1 result="100 to 1000 nM"
compound_structure_string=COc1ccc(C(=O)CCCCCC(=O)N[C@H](CN2CCCC2(C)C)[C@H](O)c2ccc3c(c2)OCCO3)cc1 result="1000 to 3000 nM"
compound_structure_string=COc1ccc(OCCC(=O)N[C@H](CN2CCCC2)[C@H](O)c2ccc(O)cc2)cc1 result="100 to 1000 nM"

Return IC50 (reported value) for this compound: "COc1ccc(OCCCC(=O)N[C@H](CN2CC[C@H](O)C2)[C@H](O)c2ccc(OCCCCF)cc2)cc1"
≤ 100 nM

Return IC50 (reported value) for this compound: "COc1ccc(C(=O)CCCCCC(=O)N[C@H](CN2C3CCC2CC3)[C@H](O)c2ccc(OC(C)C)cc2)cc1"
≤ 100 nM

* * *

- System: GM3
- Assay Name: GM3 Elisa assay
- Type: cell-based
- Cond: Table 3 (IC 50 Values); B16-FO cells; read-out: IC50_uM_Mean
- Experimental: B16-FO cells from ATCC (American Tissue Culture Collection) were grown in DMEM media (ATCC) with 10% Fetal Bovine Serum (Hyclone) and Pen/Step/Glutamine (Biowhittaker). […] The plates were washed 3 times with TBS, flicked and blotted and 100 μl of Quantablu (Pierce) was added to the wells and incubated for 1 hour then read on a Fluorometer at Ex 325 and Em 420. The data was then analyzed using standard programs.
Below: a set of entries, each annotated with reported IC50.

Worked examples follow.
compound="COc1ccc(OCCC(=O)N[C@H](CN2CC[C@@H](F)C2)[C@H](O)c2ccc(OC(C)C)cc2)cc1 [Compound 452]" measured_target=GM3 result="100 to 1000 nM"
compound="Cc1ccc(OCCC(=O)N[C@H](CN2CC[C@H](O)C2)[C@H](O)c2ccc(OC(C)C)cc2)cc1 [Compound 738]" measured_target=GM3 result="≤ 100 nM"
compound="O=C(N[C@H](CN1CCCC1)[C@H](O)c1ccc2c(c1)OCCO2)C1(C(F)(F)F)CCC1 [Compound 614]" measured_target=GM3 result="3000 to 10000 nM"

Return IC50 (reported value) for this compound: O=C(CCCOc1ccc(F)cc1)N[C@H](CN1CC[C@H](O)C1)[C@H](O)c1ccc2c(c1)OCCO2 [Compound 656]
≤ 100 nM

Return IC50 (reported value) for this compound: CC(C)Oc1ccc([C@@H](O)[C@@H](CN2CCC(F)C2)NC(=O)CCOc2ccc(Cl)cc2)cc1 (stereo partly shown) [Compound 725]
100 to 1000 nM

Return IC50 (reported value) for this compound: COc1ccc(OCCC(=O)N(Cc2ccccn2)[C@H](CN2CCCC2)[C@H](O)c2ccc(O)cc2)cc1 [Compound 716]
3000 to 10000 nM

Return IC50 (reported value) for this compound: O=C(CCCOc1ccc(F)cc1)N[C@@H](CN1C2CCC1CC2)C(O)c1ccc2c(c1)OCCO2 (stereo partly shown) [Compound 472]
100 to 1000 nM

Return IC50 (reported value) for this compound: CCCCCCCC(=O)N[C@@H](CN1CCCC1)[C@@H](O)c1ccc2c(c1)OCCO2 [Compound 677]
3000 to 10000 nM

Return IC50 (reported value) for this compound: COc1ccc(C(=O)CCCCCC(=O)N[C@H](CN2CCCC2)[C@H](O)c2ccccc2OC)cc1 [Compound 699]
≤ 100 nM

Return IC50 (reported value) for this compound: CCCCCCCCCCCCCC(=O)N[C@H](CN(C)C(C)C)[C@H](O)c1ccc2c(c1)OCCO2 [Compound 684]
100 to 1000 nM

Return IC50 (reported value) for this compound: CCCCCCCC(=O)N[C@H](CN1C2CCC1CC2)[C@H](O)c1ccc2c(c1)OCCO2 [Compound 524]
100 to 1000 nM

Return IC50 (reported value) for this compound: O=C(N[C@H](CN1CCCC1)[C@H](O)c1ccc2c(c1)OC(F)(F)C(F)(F)O2)OCc1ccccc1 [Compound 399]
1000 to 3000 nM

Return IC50 (reported value) for this compound: COCCOc1ccc([C@@H](O)[C@@H](CN2CCCC2)N(CCOC)C(=O)CCCCC(=O)c2ccc(OC)cc2)cc1 [Compound 423]
1000 to 3000 nM

Return IC50 (reported value) for this compound: CCCCCCCC(=O)N[C@H](CN1CCCC1)[C@H](O)/C=C/c1ccccc1 [Compound 397]
3000 to 10000 nM

Return IC50 (reported value) for this compound: COc1ccc(C(=O)CCCCCC(=O)N[C@H](CN2CC[C@H](O)C2)[C@H](O)c2ccc(OCCCCF)cc2)cc1 [Compound 497]
≤ 100 nM

Return IC50 (reported value) for this compound: COc1ccc(OCCC(=O)N(Cc2cccc(-c3noc(C)n3)c2)[C@H](CN2CCCC2)[C@H](O)c2ccc(O)cc2)cc1 [Compound 718]
3000 to 10000 nM

Return IC50 (reported value) for this compound: O=C1CCC(=O)N1[C@H](CN1CCCC1)[C@H](O)c1ccc2c(c1)OCCO2 [Compound 670]
3000 to 10000 nM

Return IC50 (reported value) for this compound: CCCCCCCC(=O)N[C@H](CN1CCC[C@H]1C)[C@@H](O)c1ccc2c(c1)OCCO2 [Compound 530]
3000 to 10000 nM

Return IC50 (reported value) for this compound: CCCOC1CN(C[C@@H](NC(=O)CCCCCC(=O)c2ccc(OC)cc2)[C@H](O)c2ccc3c(c2)OCCO3)C1 [Compound 604]
3000 to 10000 nM

* * *

Below: a set of entries, each annotated with reported pIC50.
- Test system: GM3
- Assay Name: GM3 Elisa assay
- Format: cell-based
- Cond: Table 3 (IC 50 Values); B16-FO cells; read-out: IC50_uM_Mean
pIC50: −log10 of the molar value.

Worked examples follow.
compound_structure_string=COc1ccc(OCCC(=O)N[C@H](CN2CCC2)[C@H](O)c2ccc3c(c2)OCCO3)cc1 result="5.52 to 6.00"
compound_structure_string=O=C(Cc1ccc(OC(F)(F)F)cc1)N[C@H](CN1CCCC1)[C@H](O)c1ccc2c(c1)OC(F)(F)O2 result="5.00 to 5.52"

For GM3, give the measured pIC50 of the entry "COc1ccc(OCCC(=O)N[C@H](Cn2ccnc2)[C@H](O)c2ccc3c(c2)OCCO3)cc1"
5.00 to 5.52

For GM3, give the measured pIC50 of the entry "CCCCC(=O)CCCCCCC(=O)N[C@H](CN1CCCC1)[C@H](O)c1ccc2c(c1)OCCO2"
6.00 to 7.00

For GM3, give the measured pIC50 of the entry "COc1ccc(C(=O)CCCCC(=O)N[C@H](CN2CCCC2)[C@H](O)c2ccc(OCCCOc3ccc(C)cc3)cc2)cc1"
≥ 7.00

For GM3, give the measured pIC50 of the entry "COc1ccc(OCCC(=O)N[C@H](CN2CC[C@@H](O)C2)[C@H](O)c2ccc3c(c2)OCCO3)cc1"
5.00 to 5.52

For GM3, give the measured pIC50 of the entry "Cc1ccc(OCCC(=O)N[C@H](CN2CC[C@@H](F)C2)[C@H](O)c2ccc(OCCCCF)cc2)cc1"
≥ 7.00

For GM3, give the measured pIC50 of the entry "CCCCCCCC(=O)N[C@H](CN1CCCC1)[C@H](O)c1ccc(-c2ccccc2)cc1"
6.00 to 7.00
